Each entry below lists one item and its recorded protein stability index value.
B1: C10orf62 (parent)
chain: TSECPSDKDKSPESHKAKNESWIK

variants of: B1; assay: protein stability index of a GFP-peptide fusion (GPS, HEK-293T) (PSI 1-6); higher = more stable; details: c terminus: a fixed tail appended;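 note: lentivirally expressed fusions sorted by FACS into six bins by GFP to DsRed ratio, PSI derived from sequencing read proportions per bin multiplied by bin number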
# answer = number (no unit)

mutant_id=P12G numeric_result=3.48
mutant_id=C4Q numeric_result=3.52
mutant_id=P12A numeric_result=2.87
mutant_id=E20F numeric_result=4.74
mutant_id=K8F numeric_result=3.68

Task: Answer with reported protein stability index of W22G
Result: 5.58

Task: Answer with reported protein stability index of S21G
Result: 4.34

Task: Answer with reported protein stability index of S11I
Result: 3.2

Task: Answer with reported protein stability index of K8A
Result: 3.08
